# Test system: OV90
# Experimental protocol: Primary qHTS to identify gynecologic anti-cancer compounds using libraries of approved drugs and bioactive compounds (AID 1345084); further: nearly all actives have a fitted effect of over 55% in size
# Run conditions: Gynecologic cancer cell panel viability, ATPlite luminescence, 48 h; series mostly up to 57.5 µM
Records with an inconclusive call do not appear. Activity calls are given as the source filed them. The call rests on the fitted dose curve; in most records, active means well fitted cell-killing curve with a large enough effect; inconclusive means small, poorly fitted or top-dose-only effect, or effect the other way; inactive means flat fitted curve, though single readings scatter.
The reply should name one outcome from active, inactive

IN: Hi team, can someone confirm the assay call for CN/C(=C\[N+](=O)[O-])NCCSCc1ccc(CN(C)C)o1 ?
OUT: active

IN: Kindly provide the recorded test outcome for the following compound: CCCCCCCC/C=C\CCCCCCCC(=O)NCc1ccc(O)c(OC)c1
OUT: inactive

IN: Would you mind telling me which call this test gave CN(C)C/C=C(/c1ccc(Br)cc1)c1cccnc1 ?
OUT: inactive

IN: What is the recorded call for this compound in the test? CCCN1C[C@H](CSC)C[C@@H]2c3cccc4[nH]cc(c34)C[C@H]21
OUT: inactive

IN: State the result this test recorded for O=C(CCNNC(=O)c1ccncc1)NCc1ccccc1 .
OUT: inactive

IN: Please let me know the test result on file for C[C@]12CCC(=O)C=C1CC[C@@H]1[C@@H]2C(=O)C[C@@]2(C)[C@H]1CC[C@]2(O)C(=O)CO .
OUT: inactive

IN: In this assay, the call recorded for CCN(Cc1ccncc1)C(=O)C(CO)c1ccccc1 (stereo unspecified) was what?
OUT: inactive

IN: Check the results log: what was the call for CC(C)COCC(CN(Cc1ccccc1)c1ccccc1)N1CCCC1 (stereo unspecified) ?
OUT: active

IN: Outcome? O=C1CC2(CCCC2)CC(=O)N1CCCCN1CCN(c2ncccn2)CC1
OUT: inactive

IN: Test call for this compound, please: CC(=O)OC(C)C[N+](C)(C)C (stereo unspecified)
OUT: inactive

IN: Returns: the outcome recorded for CCOC(=O)c1cnc2c(cnn2CC)c1NN=C(C)C in this assay.
OUT: inactive

* * *

# Experimental protocol: Drug repurposing screens with cells derived from glioblastoma tumor samples (AID 1345199); further: on the % scale 0 is the no-effect control and ±100 the full control effect; nearly all actives have a fitted effect of over 40% in size
# Run conditions: GBM patient neurospheres viability, ATP luminescence, 48 h; at 46.1 µM (top of the series); tumour line C
Records with an inconclusive call do not appear.
Exercise: for every item that follows, state its recorded activity, negative = cell killing.
Respond with the bare value in %.

IN: Please list activity, negative = cell killing recorded for the compound CC(C)(C)c1ccc(C(=O)CCCN2CCC(OC(c3ccccc3)c3ccccc3)CC2)cc1
OUT: -18.9

IN: For the compound Brc1c(NC2=NCCN2)ccc2nccnc12 , give its measured activity, negative = cell killing value.
OUT: 4.36

IN: # return recorded activity, negative = cell killing for entry Cc1ccc(=O)n(-c2ccccc2)c1
OUT: -7.43

IN: Recall and state the measured activity, negative = cell killing for C[C@]12CC[C@@H]3c4ccc(O)cc4C[C@@H](CCCCCCCCCS(=O)CCCC(F)(F)C(F)(F)F)[C@H]3[C@@H]1CC[C@@H]2O (stereo partly specified) .
OUT: 16.6

IN: Determine its reported activity, negative = cell killing: CCOC(=O)C1=C(C)NC(C)=C(C(=O)OC)C1c1cccc([N+](=O)[O-])c1 (stereo unspecified)
OUT: -23.9

IN: Specify reported activity, negative = cell killing for the compound shown: NC(N)=N/N=C/c1c(Cl)cccc1Cl
OUT: 0.325

* * *

# Tested on: CAOV3
# Experimental protocol: Primary qHTS to identify gynecologic anti-cancer compounds using libraries of approved drugs and bioactive compounds (AID 1345084); further: nearly all actives have a fitted effect of over 55% in size; on activity change, negative = cytotoxicity: on the % scale 0 is the no-effect control and ±100 the full control effect
# Run conditions: Gynecologic cancer cell panel viability, ATPlite luminescence, 48 h; series mostly up to 57.5 µM
Records with an inconclusive call do not appear. The source made the active and inactive calls. Calls come from the whole dose curve; as a rule, active = well fitted cell-killing curve with a large enough effect; inconclusive = small, poorly fitted or top-dose-only effect, or effect the other way; inactive = flat fitted curve, though single readings scatter.
Assay readout: activity change, negative = cytotoxicity

# annotated cases, reported activity change, negative = cytotoxicity shown
{"Compound": "C#CCN(C)CCCOc1ccc(Cl)cc1Cl", "Endpoint value": "inactive"}
{"Compound": "CC(=O)OC(C)C[N+](C)(C)C (stereo unspecified)", "Endpoint value": "inactive"}
{"Compound": "CSc1ccc(C(=O)c2[nH]c(=O)[nH]c2C)cc1", "Endpoint value": "inactive"}
{"Compound": "Cc1ccc(Cl)c(Nc2ccccc2C(=O)O)c1Cl", "Endpoint value": "inactive"}
{"Compound": "CC(C)(C)NCC(O)c1cc(O)cc(O)c1 (stereo unspecified)", "Endpoint value": "inactive"}
{"Compound": "CN1CCN(CC(=O)N2c3ccccc3C(=O)Nc3cccnc32)CC1", "Endpoint value": "6.09% [at 6.55 µM] (inactive)"}

IN: Dear colleague, please send me the reported activity change, negative = cytotoxicity for CC(C)NCC(O)c1cc(O)cc(O)c1 (stereo unspecified) when you can.
OUT: inactive

IN: Consider the compound C[C@]12C=CC(=O)C=C1CC[C@H]1[C@@H]3C[C@@H](O)[C@](O)(C(=O)CO)[C@@]3(C)C[C@H](O)[C@@]12F and give its recorded activity change, negative = cytotoxicity.
OUT: inactive

IN: Fill in reported activity change, negative = cytotoxicity for this entry: Cc1scc2c1N(C(=O)CN1CCN(C)CC1)c1ccccc1NC2=O
OUT: inactive
